Test System: NET (Rattus norvegicus, UniProt Q63380)
Construct: from tissue
Sequence (Q63380 1-617): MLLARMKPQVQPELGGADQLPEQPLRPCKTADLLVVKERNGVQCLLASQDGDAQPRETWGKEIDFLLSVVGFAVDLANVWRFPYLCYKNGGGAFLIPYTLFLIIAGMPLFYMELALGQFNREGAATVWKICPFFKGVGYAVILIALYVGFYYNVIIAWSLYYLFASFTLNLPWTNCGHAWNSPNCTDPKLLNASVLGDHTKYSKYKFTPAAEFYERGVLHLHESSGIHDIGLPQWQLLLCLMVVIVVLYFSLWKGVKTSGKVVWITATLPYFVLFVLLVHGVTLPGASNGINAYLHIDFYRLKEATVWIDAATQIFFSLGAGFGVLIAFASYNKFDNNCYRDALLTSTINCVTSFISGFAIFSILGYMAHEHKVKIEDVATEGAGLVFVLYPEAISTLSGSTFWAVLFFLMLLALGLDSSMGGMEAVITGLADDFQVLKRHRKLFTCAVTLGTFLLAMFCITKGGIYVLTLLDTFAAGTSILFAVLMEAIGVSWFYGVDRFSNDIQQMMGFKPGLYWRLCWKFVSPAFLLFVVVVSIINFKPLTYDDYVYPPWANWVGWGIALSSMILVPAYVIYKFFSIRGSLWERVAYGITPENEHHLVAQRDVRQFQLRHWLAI
Assay Text: Inhibition of [3H]NE uptake by NET
Type: biochemical
Assay Conditions: text summary of Table 4
Quantity Measured: Blockade of NET, in words

* O[C@@H]1C[C@@H](C(c2ccccc2)c2ccccc2)OC[C@H]1NCc1ccc2[nH]ccc2c1 [(−)-32b] | potent blockers
* Oc1ccc(CN[C@H]2CC[C@@H](C(c3ccccc3)c3ccccc3)OC2)cc1 [(−)-37a] | potent blockers

---

Counter-ions that a name gives are not always drawn.
Consider the following molecules; for each one, report its melting point.

## Task Param item = O[C@@H]1CO[C@H](C(c2ccccc2)c2ccccc2)C[C@H]1NCc1ccccc1 (as salt: oxalate) [(−)-29h] ; retrieve measured melting point.
## Result 259 to 260 °C

## Task Would you kindly share the measured melting point for COc1ccc(CN[C@H]2C[C@H](C(c3ccccc3)c3ccccc3)OC[C@H]2O)cc1 (as salt: oxalate) [(+)-29g] ?
## Result 235 to 237 °C

## Task What measured melting point goes with Oc1ccc(CN[C@H]2CC[C@@H](C(c3ccccc3)c3ccccc3)OC2)cc1 (relative stereo) (as salt: oxalate) [Compound 16h] ?
## Result 136 to 138 °C

## Task Which melting point is reported for this molecule? O[C@@H]1CO[C@@H](C(c2ccccc2)c2ccccc2)C[C@@H]1NCc1ccccc1 (as salt: oxalate) [(+)-29h]
## Result 259 to 260 °C

---

Test system: rat NET
Assay Text: Inhibition of [3H]nisoxetine binding to NET
Assay Conditions: Table 3; selectivity ratio of IC50 values
Quantity Measured: NET binding/DAT binding
API doc: respond with a numeric literal and nothing else, no unit.

## Task Dear colleague, I am looking for the recorded NET binding/DAT binding of the following compound: c1ccc(C(c2ccccc2)C2CCC(NCc3c[nH]c4ccccc34)CO2)cc1 (stereo not drawn) [Compound 16f]
## Result 2.3

## Task # NET binding/DAT binding lookup, item Fc1ccc(CN[C@H]2CC[C@@H](C(c3ccccc3)c3ccccc3)OC2)cc1 (relative stereo) [Compound 16b]
## Result 1.4

## Task Query (compound): Fc1ccc(CN[C@H]2CC[C@@H](C(c3ccccc3)c3ccccc3)OC2)cc1F (relative stereo) [Compound 16j] ; field requested: NET binding/DAT binding
## Result 1.9

## Task Field request: NET binding/DAT binding | item: c1ccc(CN[C@H]2CC[C@@H](C(c3ccccc3)c3ccccc3)OC2)cc1 (relative stereo) [Compound 16k]
## Result 0.90

## Task Fill in: NET binding/DAT binding of Ic1ccc(CN[C@H]2CC[C@@H](C(c3ccccc3)c3ccccc3)OC2)cc1 (relative stereo) [Compound 16m] is ___
## Result 0.73

## Task Would you mind telling me what NET binding/DAT binding value was observed for Clc1ccc(CN[C@H]2CC[C@@H](C(c3ccccc3)c3ccccc3)OC2)cc1Cl (relative stereo) [Compound 16i] ?
## Result 0.36

## Task Please look up its NET binding/DAT binding: c1ccc(C(c2ccccc2)C2CCC(NCc3cc4ccccc4[nH]3)CO2)cc1 (stereo not drawn) [Compound 16g]
## Result 1.8

## Task So what's the measured NET binding/DAT binding for this one? c1ccc(C(c2ccccc2)[C@@H]2CC[C@H](NCc3ccc4[nH]ccc4c3)CO2)cc1 (relative stereo) [Compound 16n]
## Result 0.09

## Task Quick check: NET binding/DAT binding of Fc1ccc(CN[C@H]2CCO[C@@H](C(c3ccccc3)c3ccccc3)C2)cc1 (relative stereo) [Compound 7a] ?
## Result 3.9
